Data origin, for the record: paper PMC4904262

# assay_setup: Balb/C, mouse, in vivo
Provide the reported Vss of each item.
Field: numeric (L/kg). Do not append units.

(Q) Sample "Cn1cc(-c2ccc(-c3cncc4ccc(C(=O)N5CCNCC5)nc34)cc2)cn1" — what was its Vss?
(A) 5.8

(Q) Sample "Cn1cc(-c2ccc(-c3cnc(N)c4ccc(C(=O)N5CCNCC5)nc34)cc2)cn1" — what was its Vss?
(A) 2.49

(Q) Sample "CNC(=O)c1ccc2c(N)ncc(-c3ccc4c(c3)CS(=O)(=O)N4C)c2n1" — what was its Vss?
(A) 5.64

(Q) Sample "CNC(=O)c1ccc2cncc(-c3ccc4c(c3)CS(=O)(=O)N4C)c2n1" — what was its Vss?
(A) 2.7

----------
# method: in vitro
# assay_setup: rat, microsomes
Provide the reported microsomal CLint at 1 µM of each item.

(Q) Sample Cn1cc(-c2ccc(-c3cncc4ccc(N5CCCS5(=O)=O)cc34)cc2)cn1 [Compound 35] — what was its microsomal CLint at 1 µM?
(A) 81 µL/min/mg

(Q) Sample Cn1cc(-c2ccc(-c3cncc4ccc(C(=O)N5CC(F)(F)C5)nc34)cc2)cn1 [Compound 14] — what was its microsomal CLint at 1 µM?
(A) 317 µL/min/mg

(Q) Sample CNC(=O)c1ccc2cncc(-c3ccc4cnn(C)c4c3)c2n1 [Compound 6] — what was its microsomal CLint at 1 µM?
(A) 178 µL/min/mg

(Q) Sample COC1(C)CN(C(=O)c2ccc3c(N)ncc(-c4ccc(-c5cnn(C)c5)cc4)c3c2)C1 [Compound 60] — what was its microsomal CLint at 1 µM?
(A) 17 µL/min/mg

(Q) Sample Cn1cc(-c2ccc(-c3cncc4ccc(C(=O)N5CC(F)(F)C5)cc34)cc2)cn1 [Compound 30] — what was its microsomal CLint at 1 µM?
(A) 207 µL/min/mg

(Q) Sample COC1CN(C(=O)c2ccc3cncc(-c4ccc(-c5cnn(C)c5)cc4)c3n2)C1 [Compound 13] — what was its microsomal CLint at 1 µM?
(A) 327 µL/min/mg

(Q) Sample Cn1cc(-c2ccc(-c3cnc(N)c4ccc(N5CCOC5=O)cc34)cc2)cn1 [Compound 65] — what was its microsomal CLint at 1 µM?
(A) 19 µL/min/mg

(Q) Sample Cn1cc(-c2ccc(-c3cncc4ccc(C(=O)N5CCC5)nc34)cc2)cn1 [Compound 12] — what was its microsomal CLint at 1 µM?
(A) 85 µL/min/mg

(Q) Sample Cn1cc(-c2ccc(-c3cnc(N)c4ccc(C(=O)N5CCC5)cc34)cc2)cn1 [Compound 58] — what was its microsomal CLint at 1 µM?
(A) 11 µL/min/mg

(Q) Sample COC1CN(C(=O)c2ccc3c(N)ncc(-c4ccc(-c5cnn(C)c5)cc4)c3n2)C1 [Compound 51] — what was its microsomal CLint at 1 µM?
(A) 26 µL/min/mg

(Q) Sample Cn1cc(-c2ccc(-c3cncc4ccc(C(=O)NC5CC5)cc34)cc2)cn1 [Compound 28] — what was its microsomal CLint at 1 µM?
(A) 98 µL/min/mg

(Q) Sample Cn1cc(-c2ccc(-c3cncc4ccc(N5CCNC5=O)nc34)cc2)cn1 [Compound 20] — what was its microsomal CLint at 1 µM?
(A) 323 µL/min/mg

(Q) Sample Cn1cc(-c2ccc(-c3cncc4ccc(C(=O)N5CCOCC5)nc34)cc2)cn1 [Compound 16] — what was its microsomal CLint at 1 µM?
(A) 23 µL/min/mg

(Q) Sample CC(=O)Nc1ccc2cncc(-c3ccc(-c4cnn(C)c4)cc3)c2c1 [Compound 31] — what was its microsomal CLint at 1 µM?
(A) 90 µL/min/mg

(Q) Sample Cn1cc(-c2ccc(-c3cnc(N)c4ccc(C(=O)N5CCC5)nc34)cc2)cn1 [Compound 52] — what was its microsomal CLint at 1 µM?
(A) 38 µL/min/mg

(Q) Sample Cn1cc(-c2ccc(-c3cncc4ccc(N5CCCC5=O)nc34)cc2)cn1 [Compound 19] — what was its microsomal CLint at 1 µM?
(A) 253 µL/min/mg

(Q) Sample CC(=O)Nc1ccc2cncc(-c3ccc(-c4cnn(C)c4)cc3)c2n1 [Compound 18] — what was its microsomal CLint at 1 µM?
(A) 247 µL/min/mg
